meta.source: the supplement of paper PMC9694430

# Test system: LOC_OS05G16824-cb004
# Protocol: thermal shift delta Tm vs DMSO control; higher = stronger stabilization (binding);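 also: purified Escherichia coli-expressed rice kinase domain construct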
# Test context: 12.5 µM; protein concentration 2 µM
The compounds listed here are annotated with their thermal shift delta Tm.
Numeric only. Scale: °C

[[record]]
compound = "O=C1NC(=O)C(c2ccccc2[N+](=O)[O-])=C1Nc1ccc(O)c(Cl)c1"
test_readout = "thermal shift delta Tm"
readout_value = -13.3


Memo: c1nc2c(NC3CCCCC3)nc(Nc3ccc(N4CCOCC4)cc3)nc2[nH]1 , reported thermal shift delta Tm: 11.7

Record COc1cc(N2CCN(C)CC2)ccc1Nc1ncc2c(n1)N(C)c1ccccc1C(=O)N2 , field thermal shift delta Tm: -1.75

// thermal shift delta Tm value for COc1ccc(COc2cc3oc(=O)c4cc(C(C)O)ccc4c3cc2OC)cc1 (configuration not stated) : -3.05

Query Cn1cc(-c2ccc3nnc(Sc4ccc5ncccc5c4)n3n2)cn1 yields thermal shift delta Tm of -3.78

response.value for CNC(=O)CN1CCC(Oc2cc3c(Nc4cccc(Cl)c4F)ncnc3cc2OC)CC1 (field: thermal shift delta Tm) = -12

Lab note: NC(=O)c1ccc2nc(-c3ccc(Oc4ccc(Cl)cc4)cc3)[nH]c2c1 gave thermal shift delta Tm of 2.79

Recorded thermal shift delta Tm (compound CO[C@H]1C[C@@H]2CC[C@@H](C)[C@@](O)(O2)C(=O)C(=O)N2CCCC[C@H]2C(=O)O[C@H]([C@H](C)C[C@@H]2CC[C@@H](OCCO)[C@H](OC)C2)CC(=O)[C@H](C)/C=C(\C)[C@@H](O)[C@@H](OC)C(=O)[C@H](C)C[C@H](C)/C=C/C=C/C=C/1C [Everolimus (RAD001)] ): 1.13

The recorded thermal shift delta Tm for C[C@@]1(C(=O)Nc2ccc(F)nc2)CCCN1c1nc(Nc2cc(C3CC3)n[nH]2)c2cccn2n1 is 7.72

Form: compound = Cc1cc(Nc2cc(N3CCN(C)CC3)nc(/C=C/c3ccccc3)n2)n[nH]1 [ENMD-2076 L-(+)-Tartaric acid] ; thermal shift delta Tm = 10.9

Query Cc1c(NC(=O)c2ccc(C(C)(C)C)cc2)cccc1-c1cn(C)c(=O)c(Nc2ccc(C(=O)N3CCOCC3)cc2)n1 yields thermal shift delta Tm of 0.48

Lab note: measured thermal shift delta Tm of NC(=O)c1cnc2[nH]ccc2c1N[C@@H]1[C@@H]2CC3C[C@H]1C[C@@](O)(C3)C2 was 8.26

Form: compound = CC1(C)OC(=O)C=C[C@]2(C)[C@H]3CC[C@@]4(C)[C@H](c5ccoc5)OC(=O)[C@H]5O[C@]54[C@]3(C)C(=O)C[C@@H]12 ; thermal shift delta Tm = 0.73

Quick note, thermal shift delta Tm for COc1cc2ncnc(Nc3ccc(F)c(Cl)c3)c2cc1OCCCN1CCOCC1 [Gefitinib (ZD1839)] landed at -0.18

Lookup result for Cc1cc(N2CCOCC2)cc2[nH]c(-c3c(NC[C@@H](O)c4cccc(Cl)c4)cc[nH]c3=O)nc12 ; measured thermal shift delta Tm: 5.37

----------
# System: LOC_OS01G51400-cb002
# Protocol: thermal shift delta Tm vs DMSO control; higher = stronger stabilization (binding)
# Test context: 12.5 µM; protein concentration 2 µM
Structures can show the parent of a compound that is named as a salt.
Test readout: thermal shift delta Tm (°C)
Supply the numeric figure in °C, leaving out any unit text.

Sample answers from the record:
[[record]]
compound = "COc1ccc(Cl)cc1NC(=O)Nc1cc(C)nc2ccccc12"
system_name = "LOC_OS01G51400-cb002"
readout_value = 1.15

[[record]]
compound = "COc1cc2c3cc1Oc1c(OC)c(OC)cc4c1[C@@H](Cc1ccc(O)c(c1)Oc1ccc(cc1)C[C@@H]3N(C)CC2)N(C)CC4 [Berbamine (dihydrochloride)]"
system_name = "LOC_OS01G51400-cb002"
readout_value = -0.01

[[record]]
compound = "CNC(=O)c1cc(Oc2ccc(NC(=O)Nc3ccc(Cl)c(C(F)(F)F)c3)cc2)ccn1 [Sorafenib Tosylate]"
system_name = "LOC_OS01G51400-cb002"
readout_value = 1.31


response.value for C[C@@H](Oc1cc(-c2cnn(C3CCNCC3)c2)cnc1N)c1c(Cl)ccc(F)c1Cl (field: thermal shift delta Tm) = 0.05

Form field thermal shift delta Tm, entry Cc1ccccc1CN1C2=NCCN2C(=O)C2=C1CCN(Cc1ccccc1)C2 : 0.5

Recorded result, OC(c1cc(-c2ccc(Cl)cc2)nc2ccccc12)C1CCCCN1 (configuration not stated) , thermal shift delta Tm: 0.34

What the record says about Cc1nc2ccc(-n3ncc(C(=O)c4cc5ccccc5[nH]4)c3N)cc2[nH]1 : thermal shift delta Tm is 0.05

The compound listed as Cc1cc(C(=O)NOCCO)c(Nc2ccc(I)cc2F)n(C)c1=O has a reported thermal shift delta Tm of -0.04

----------
Below, each entry is listed alongside its reported thermal shift delta Tm.
# Tested on: LOC_OS05G43570-cb004
# Protocol: thermal shift delta Tm vs DMSO control; higher = stronger stabilization (binding)
# Test context: 12.5 µM; protein concentration 2 µM
# output: bare number, implied unit °C

[[record]]
compound = "C[C@H]1[C@H](C)CC[C@]2(C(=O)O)CC[C@]3(C)C(=CC[C@@H]4[C@@]5(C)C[C@@H](O)[C@H](O)[C@@](C)(CO)[C@@H]5CC[C@]43C)[C@H]12 [Asiatic Acid]"
test_readout = "thermal shift delta Tm"
output_unit = "°C"
readout_value = 1.08

[[record]]
compound = "C[C@@H](N)c1ccc(C(=O)Nc2ccnc3[nH]ccc23)cc1"
test_readout = "thermal shift delta Tm"
output_unit = "°C"
readout_value = 0.84

[[record]]
compound = "COc1c(C)c(C(=O)c2ccc(N)c(C(=O)O)c2)n2ccccc12"
test_readout = "thermal shift delta Tm"
output_unit = "°C"
readout_value = 0.58

[[record]]
compound = "Cc1cn(-c2cc(NC(=O)c3ccc(C)c(Nc4nccc(-c5cccnc5)n4)c3)cc(C(F)(F)F)c2)cn1 [Nilotinib (AMN-107)]"
test_readout = "thermal shift delta Tm"
output_unit = "°C"
readout_value = 0.26


Per the record, N#CC[C@H](C1CCCC1)n1cc(-c2ncnc3[nH]ccc23)cn1 has thermal shift delta Tm of 1.05

Record summary for COC(=O)Nc1ccc(-c2nc(N3CCOCC3)c3cnn(C4CCN(C(=O)OC)CC4)c3n2)cc1 : reported thermal shift delta Tm = 0.65

Lab note: measured thermal shift delta Tm of O=C(Nc1nccs1)C(c1cc(F)ccc1O)N1Cc2ccccc2C1=O (stereo not drawn) was -0.04

The recorded thermal shift delta Tm for entry CC1(COc2ccc3c(c2)ncn3-c2ccc3cccc(N4CCC(N)CC4)c3n2)COC1 equals 0.2

----------
# Tested on: LOC_OS04G35114-cb001
# Protocol: thermal shift delta Tm vs DMSO control; higher = stronger stabilization (binding)
# Test context: 12.5 µM; protein concentration 2 µM
Please use the following thermal shift delta Tm ranges when assigning a class: class 1 = under 0.4 °C, class 2 = from 0.4 °C up to 3 °C, class 3 = 3 °C and over

Solved entries (count: 4):
[[record]]
compound = "CN(C)C/C=C/C(=O)Nc1cc2c(Nc3ccc(F)c(Cl)c3)ncnc2cc1O[C@H]1CCOC1 [Afatinib (BIBW2992)]"
classification = "class 3"

[[record]]
compound = "CC(C)=CC[C@@H](O)C1=CC(=O)c2c(O)ccc(O)c2C1=O [Shikonin]"
classification = "class 3"

[[record]]
compound = "CCOc1cc2ncc(C#N)c(Nc3ccc(OCc4ccccn4)c(Cl)c3)c2cc1NC(=O)/C=C/CN(C)C [Neratinib (HKI-272)]"
classification = "class 3"

[[record]]
compound = "CNC(=O)CN1CCC(Oc2cc3c(Nc4cccc(Cl)c4F)ncnc3cc2OC)CC1 [Sapitinib (AZD8931)]"
classification = "class 3"


IN: Given CO[C@H]1C[C@@H]2CC[C@@H](C)[C@@](O)(O2)C(=O)C(=O)N2CCCC[C@H]2C(=O)O[C@H]([C@H](C)C[C@@H]2CC[C@@H](OP(C)(C)=O)[C@H](OC)C2)CC(=O)[C@H](C)/C=C(\C)[C@@H](O)[C@@H](OC)C(=O)[C@H](C)C[C@H](C)/C=C/C=C/C=C/1C [Ridaforolimus (Deforolimus, MK-8669)] , name the class its thermal shift delta Tm places it in.
OUT: class 1

IN: Returns: class label. Input: Cc1csc(-c2nnc(Nc3ccc(Oc4ncccc4-c4ccnc(N)n4)cc3)c3ccccc23)c1
OUT: class 2

IN: Quick check: band for O=C(Cc1ccc(-c2ccc(OCCN3CCOCC3)cc2)cn1)NCc1ccccc1
OUT: class 2

IN: // return the class label for COC(=O)[C@]12CCC(C)(C)C[C@H]1[C@H]1C(=O)C=C3[C@@]4(C)C=C(C#N)C(=O)C(C)(C)[C@@H]4CC[C@@]3(C)[C@]1(C)CC2 [Bardoxolone Methyl]
OUT: class 1

IN: Band for the recorded thermal shift delta Tm of O=C(Nc1cc(C(F)(F)F)cc(C(F)(F)F)c1)c1cc(Cl)ccc1O ?
OUT: class 1
